Assay: qHTS assay to identify small molecule antagonists of the sonic hedgehog signaling (Shh) pathway (AID 1259369); further: on the % scale 0 is the no-effect control and ±100 the full control effect; nearly all actives have a fitted effect of over 45% in size
Details: NIH/3T3 Gli1-Luc reporter, Shh antagonist, luminescence 24 h; series mostly up to 92.4 µM
Records with an inconclusive call do not appear. The source made the active and inactive calls. The call rests on the fitted dose curve.

{"molecule": "O=C(NCc1cccnc1)Nc1ccc([N+](=O)[O-])cc1", "outcome": "inactive"}
{"molecule": "COc1c(C(C)(C)C)cc([N+](=O)[O-])c(C)c1[N+](=O)[O-]", "outcome": "inactive"}
{"molecule": "O=Cc1ccc2c(c1)OCO2", "outcome": "inactive"}

###

Assay: qHTS RealTime-Glo MT Cell Viability Assay in HEK293 cells - 40 hour (AID 1224874); further: on the % scale 0 is the no-effect control and ±100 the full control effect; nearly all actives have a fitted effect of over 50% in size
Settings: RealTime-Glo luminescence; hits give low values
Results filed as inconclusive are left out.
endpointName: max response (%)
Numbers only; they are read as %.

Kindly indicate its recorded max response. Item: "CCN(C)N=O" 2.13

Tell me max response reported for "C=COC(C)=O" 2.49

Provide measured max response value, entry: "Clc1cc(Cl)c(Cl)c(Cl)c1" -4.38

Please report the measured max response for CC(=O)c1cc2c(cc1C)C(C)(C)C(C)CC2(C)C (stereo not drawn) -12.1

Please list max response recorded for the molecule "O=C(O)c1ccccc1C(=O)Nc1cccc2ccccc12" 18.5

Find the measured max response of CC(C)N(CCC(C(N)=O)(c1ccccc1)c1ccccn1)C(C)C (stereo not drawn) and report it. 2.75

Output max response of "COC(C)(C)CCC[C@H](C)C/C=C/C(C)=C/C(=O)OC(C)C" -3.6

For the molecule "O=[N+]([O-])c1ccccc1CCl" , report max response. 8.2

Consider the molecule "Nc1ccc([N+](=O)[O-])cc1[N+](=O)[O-]" and give its recorded max response. -23.5

Check the records and state max response for "CC(C)(OO)c1ccccc1" -0.0681

Give the reported value of max response for this record: "C/C=C/C=O" 5.18

Identify the reported max response for the following entry. CCC(Cl)CCl (stereo not drawn) 2.27

Could you please provide reported max response for "[O-][Cl+]O" ? Thanks! 2.38

// Input: "C#CCOC(C(=O)OCCN(C)C)(c1ccccc1)c1ccccc1" . Output its max response only. -21.3

Report max response for "CCCCCCCCOC(=O)c1ccc(C(=O)OCCCCCCCC)c(C(=O)OCCCCCCCC)c1" -3.25

Please give the documented max response of "O=NN1CCCCCC1" 0.127

Query max response for "C[C@]12CC[C@H]3[C@@H](CCC4=CC(=O)CC[C@@H]43)[C@@H]1CC[C@@H]2OC(=O)CCC1CCCCC1" -18.6

# return recorded max response for entry "C=CC(=O)OC" 0.596

Give the reported max response for this molecule. "NNC(=O)c1cccnc1" 12.4

Tell us which max response value is on record for "Cc1ccc2ccccc2c1" 0.388

Name the recorded max response of the item "C=CC(=O)OC(C)(C)C" in your answer. 13.5

Query max response for COC(=O)C(Br)CBr (stereo not drawn) -3.92

Dear colleague, please send me the reported max response for C=CC(=O)OCC(C)O (stereo not drawn) when you can. 21.2

Determine from records and report max response for "O=C=Nc1ccc(Cl)cc1" -3

Consider the molecule "NC(=O)C(Cl)(Cl)Cl" . State its measured max response. 16.8

Name the recorded max response of the item CCOP(=S)(Oc1ccc([N+](=O)[O-])cc1)c1ccccc1 (stereo not drawn) in your answer. 9.18

Give me measured max response, please, for this molecule: "Clc1cccc(SC2CCNCC2)n1" 1.39

Retrieve max response measured for "CCOS(C)(=O)=O" and print it. -7.66

Taken from PubChem BioAssay (Tox21).
